# Measured target: T1, biotinylated goat anti-human kappa light chain
# T1 construct: Positive control of the ELISA
# Assay text: ELISA; positive control; also: test concentration or dose not given here
# optical density listing for each entry below
Observable: optical density (OD)

[[record]]
binder = "370_A06 (antibody, V domains shown, VH/VL only) VH: EVQLLESGGGLVQPGGSLRLSCAASGFTFSSYSMNWVRQAPGKGLEWVASINYNSGYKSYADSVKGRFTISRDNSKNTLYLQMNSLRAEDTAVYYCARSATWHDTHLDYWGQGTLVTVSS VL: DIQMTQSPSSLSASVGDRVTITCRASQSIVTYLNWYQQKPGKAPKLVIYAATSLASGVPSRFSGSGSGTDFTLTISSLQPEDFATYYCQQSYDLPLTFGGGTKVEIK"
observable = "optical density"
unit_of_measurement = "OD"
value = 3.47

[[record]]
binder = "376_E03 (antibody, V domains shown, VH/VL only) VH: EVQLLESGGGLVQPGGSLRLSCAASGFTFSSYGMNWVRQAPGKGLEWVANINYNGGYTGYADSVKGRFTISRDNSKNTLYLQMNSLRAEDTAVYYCARSANWHDTALDYWGQGTLVTVSS VL: DIQMTQSPSSLSASVGDRVTITCRASQSILSYVNWYQQKPGKAPKLVIYAATSLASGVPSRFSGSGSGTDFTLTISSLQPEDFATYYCQQSYDLPLTFGGGTKVEIK"
observable = "optical density"
unit_of_measurement = "OD"
value = 3.42

[[record]]
binder = "374_D02 (antibody, V domains shown, VH/VL only) VH: EVQLLESGGGLVQPGGSLRLSCAASGFTFDSYSMNWVRQAPGKGLEWVAGINYNSGYTSYADSVKGRFTISRDNSKNTLYLQMNSLRAEDTAVYYCARSATWHDTHLDYWGQGTLVTVSS VL: DIQMTQSPSSLSASVGDRVTITCRASQSISTYVNWYQQKPGKAPKLLIYAVTSLASGVPSRFSGSGSGTDFTLTISSLQPEDFATYYCQQSYDSPLTFGGGTKVEIK"
observable = "optical density"
unit_of_measurement = "OD"
value = 2.99

[[record]]
binder = "365_B03 (antibody, V domains shown, VH/VL only) VH: EVQLLESGGGLVQPGGSLRLSCAASGFTFSSYSMNWVRQAPGKGLEWVAGINYNGGYTGYADSVKGRFTISRDNSKNTLYLQMNSLRAEDTAVYYCARSATWHDTHLDYWGQGTLVTVSS VL: DIQMTQSPSSLSASVGDRVTITCRASQSIVSYLNWYQQKPGKAPKLLIYAATSRASGVPSRFSGSGSGTDFTLTISSLQPEDFATYYCQQSYENPLTFGGGTKVEIK"
observable = "optical density"
unit_of_measurement = "OD"
value = 3.38

[[record]]
binder = "374_G07 (antibody, V domains shown, VH/VL only) VH: EVQLLESGGGLVQPGGSLRLSCAASGFTFSSYSMNWVRQAPGKGLEWVSGINYNSGYKSYADSVKGRFTISRDNSKNTLYLQMNSLRAEDTAVYYCARSANWHDTALDYWGQGTLVTVSS VL: DIQMTQSPSSLSASVGDRVTITCRASQSIISYLNWYQQKPGKAPKLLIYAATSRASGVPSRFSGSGSGTDFTLTISSLQPEDFATYYCQQSYDSPLTFGGGTKVEIK"
observable = "optical density"
unit_of_measurement = "OD"
value = 3.26

